# assay_explanation: Log P by RP-HPLC (HPLC-PDA), extrapolation of Log k to 0% MeOH
# Format: physicochemical
# experimental_setup: 60% MeOH, RP-C18
recorded_endpoint: Retention factor (k)

Ask | # input molecule: Oc1ccc(/C=C/c2ccc(Cl)cc2Cl)cc1 [Compound 3] ; wanted: its Retention factor (k)
Reply | 30.3325

Ask | # input molecule: Oc1ccc(/C=C/c2ccc(Cl)cc2)cc1 [Compound 1, 4-[(E)-2-(4-Chlorophenyl)vinyl]phenol] ; wanted: its Retention factor (k)
Reply | 9.6110

Ask | # input molecule: O=[N+]([O-])c1ccc(/C=C/c2ccc(O)c(Cl)c2)cc1 [Compound 5] ; wanted: its Retention factor (k)
Reply | 9.9412

Ask | # input molecule: Oc1ccc(/C=C/c2ccccc2)cc1Cl [Compound 2, 2-Chloro-4-[(E)-2-phenylvinyl]phenol] ; wanted: its Retention factor (k)
Reply | 11.3757

Ask | # input molecule: Oc1ccc(/C=C/c2ccc(C(F)(F)F)cc2)cc1 [Compound 7] ; wanted: its Retention factor (k)
Reply | 14.1757

Ask | # input molecule: Oc1ccc(/C=C/c2ccc(Cl)cc2Cl)cc1Cl [Compound 4] ; wanted: its Retention factor (k)
Reply | 59.0580

Ask | # input molecule: Oc1ccc(/C=C/c2ccc(C(F)(F)F)cc2)cc1Cl [Compound 6] ; wanted: its Retention factor (k)
Reply | 26.4651

###

# assay_explanation: Log P by RP-HPLC (HPLC-PDA), extrapolation of Log k to 0% MeOH
# Format: physicochemical
# experimental_setup: 70% MeOH, RP-C18
Answer 0 if Retention factor (k) is under 3, and 1 if it is 3 or more.

Ask | Threshold query (Retention factor (k) >= 3) on O=[N+]([O-])c1ccc(/C=C/c2ccc(O)c(Cl)c2)cc1
Reply | 0

Ask | Threshold query (Retention factor (k) >= 3) on Oc1ccc(/C=C/c2ccc(Cl)cc2Cl)cc1
Reply | 1

Ask | Threshold query (Retention factor (k) >= 3) on Oc1ccc(/C=C/c2ccc(C(F)(F)F)cc2)cc1
Reply | 1

Ask | Threshold query (Retention factor (k) >= 3) on Oc1ccc(/C=C/c2ccc(Cl)cc2)cc1 [Compound 1, 4-[(E)-2-(4-Chlorophenyl)vinyl]phenol]
Reply | 0

Ask | Threshold query (Retention factor (k) >= 3) on Oc1ccc(/C=C/c2ccc(C(F)(F)F)cc2)cc1Cl
Reply | 1

Ask | Threshold query (Retention factor (k) >= 3) on Oc1ccc(/C=C/c2ccccc2)cc1Cl [Compound 2, 2-Chloro-4-[(E)-2-phenylvinyl]phenol]
Reply | 1

Ask | Threshold query (Retention factor (k) >= 3) on Oc1ccc(/C=C/c2ccc(Cl)cc2Cl)cc1Cl
Reply | 1

###

So I've got a bunch of compounds here, and I need their Retention factor (k) values.
# assay_explanation: Log P by RP-HPLC (HPLC-PDA), extrapolation of Log k to 0% MeOH
# Format: physicochemical
# experimental_setup: 65% MeOH, RP-C18
Hey, just send me the number, nothing else.

Ask | # input compound: O=[N+]([O-])c1ccc(/C=C/c2ccc(O)c(Cl)c2)cc1 [Compound 5] ; wanted: its Retention factor (k)
Reply | 5.2008

Ask | # input compound: Oc1ccc(/C=C/c2ccc(C(F)(F)F)cc2)cc1Cl [Compound 6] ; wanted: its Retention factor (k)
Reply | 12.0776

Ask | # input compound: Oc1ccc(/C=C/c2ccc(Cl)cc2Cl)cc1Cl [Compound 4] ; wanted: its Retention factor (k)
Reply | 27.8973

Ask | # input compound: Oc1ccc(/C=C/c2ccc(C(F)(F)F)cc2)cc1 [Compound 7] ; wanted: its Retention factor (k)
Reply | 6.8682

Ask | # input compound: Oc1ccc(/C=C/c2ccccc2)cc1Cl [Compound 2, 2-Chloro-4-[(E)-2-phenylvinyl]phenol] ; wanted: its Retention factor (k)
Reply | 6.0620

Ask | # input compound: Oc1ccc(/C=C/c2ccc(Cl)cc2)cc1 [Compound 1, 4-[(E)-2-(4-Chlorophenyl)vinyl]phenol] ; wanted: its Retention factor (k)
Reply | 4.8361

###

So I've got a bunch of molecules here, and I need their chromatographic logP values.
# assay_explanation: Log P by RP-HPLC (HPLC-PDA), extrapolation of Log k to 0% MeOH
# Type: physicochemical
# experimental_setup: Log P estimated by RP-HPLC, extrapolated to 0% MeOH; SD at 95% confidence interval
Hey, just send me the number, nothing else.

Ask | # input molecule: Oc1ccc(/C=C/c2ccccc2)cc1Cl [Compound 2, 2-Chloro-4-[(E)-2-phenylvinyl]phenol] ; wanted: its chromatographic logP
Reply | 4.2

Ask | # input molecule: Oc1ccc(/C=C/c2cc(O)cc(O)c2)cc1 [RSV, 3,5,4′-trihydroxy-trans-stilbene, reference compound] ; wanted: its chromatographic logP
Reply | 2.47

Ask | # input molecule: Oc1ccc(/C=C/c2ccc(Cl)cc2Cl)cc1 ; wanted: its chromatographic logP
Reply | 5.11

Ask | # input molecule: Oc1ccc(/C=C/c2ccc(C(F)(F)F)cc2)cc1 ; wanted: its chromatographic logP
Reply | 4.7

Ask | # input molecule: Oc1ccc(/C=C/c2ccc(Cl)cc2)cc1 [Compound 1, 4-[(E)-2-(4-Chlorophenyl)vinyl]phenol] ; wanted: its chromatographic logP
Reply | 4.29

Ask | # input molecule: Oc1ccc(/C=C/c2ccc(C(F)(F)F)cc2)cc1Cl ; wanted: its chromatographic logP
Reply | 5.21

Ask | # input molecule: O=[N+]([O-])c1ccc(/C=C/c2ccc(O)c(Cl)c2)cc1 ; wanted: its chromatographic logP
Reply | 4.22

###

# assay_explanation: Log P by RP-HPLC (HPLC-PDA), extrapolation of Log k to 0% MeOH
# Type: physicochemical
# experimental_setup: 75% MeOH, RP-C18
recorded_endpoint: Retention factor (k)
Hey, just send me the number, nothing else.

Ask | # input compound: Oc1ccc(/C=C/c2ccc(C(F)(F)F)cc2)cc1Cl [Compound 6] ; wanted: its Retention factor (k)
Reply | 2.8871

Ask | # input compound: Oc1ccc(/C=C/c2ccc(Cl)cc2Cl)cc1 [Compound 3] ; wanted: its Retention factor (k)
Reply | 4.0455

Ask | # input compound: Oc1ccc(/C=C/c2ccc(Cl)cc2Cl)cc1Cl [Compound 4] ; wanted: its Retention factor (k)
Reply | 6.0620

Ask | # input compound: O=[N+]([O-])c1ccc(/C=C/c2ccc(O)c(Cl)c2)cc1 [Compound 5] ; wanted: its Retention factor (k)
Reply | 1.4243

Ask | # input compound: Oc1ccc(/C=C/c2ccc(C(F)(F)F)cc2)cc1 [Compound 7] ; wanted: its Retention factor (k)
Reply | 1.8063

Ask | # input compound: Oc1ccc(/C=C/c2ccccc2)cc1Cl [Compound 2, 2-Chloro-4-[(E)-2-phenylvinyl]phenol] ; wanted: its Retention factor (k)
Reply | 1.6761

Ask | # input compound: Oc1ccc(/C=C/c2ccc(Cl)cc2)cc1 [Compound 1, 4-[(E)-2-(4-Chlorophenyl)vinyl]phenol] ; wanted: its Retention factor (k)
Reply | 1.3584

###

# assay_explanation: Log P by RP-HPLC (HPLC-PDA), extrapolation of Log k to 0% MeOH
# Type: physicochemical
# experimental_setup: 60% MeOH, RP-C18
# Procedure: For each compound, the retention time was reported at different percentages of mobile phases (Table 1). See Materials and Methods and Supplementary Materials for the detailed procedures. (1) k= tR− tM/tM where tR is the retention time of the sample and tM is the retention time of blank (methanol). Stock solutions of each compound were prepared as follow: 1 mg of the synthesized compound and RSV (control) was weighted and dissolved in 1 mL of dimethyl sulfoxide (DMSO). […]
recorded_endpoint: Log k
Hey, just send me the number, nothing else.

Ask | # input compound: Oc1ccc(/C=C/c2ccc(C(F)(F)F)cc2)cc1Cl [Compound 6] ; wanted: its Log k
Reply | 1.4227

Ask | # input compound: Oc1ccc(/C=C/c2ccc(Cl)cc2)cc1 [Compound 1, 4-[(E)-2-(4-Chlorophenyl)vinyl]phenol] ; wanted: its Log k
Reply | 0.9828

Ask | # input compound: Oc1ccc(/C=C/c2ccc(C(F)(F)F)cc2)cc1 [Compound 7] ; wanted: its Log k
Reply | 1.1515

Ask | # input compound: Oc1ccc(/C=C/c2ccc(Cl)cc2Cl)cc1Cl [Compound 4] ; wanted: its Log k
Reply | 1.7713

Ask | # input compound: Oc1ccc(/C=C/c2ccccc2)cc1Cl [Compound 2, 2-Chloro-4-[(E)-2-phenylvinyl]phenol] ; wanted: its Log k
Reply | 1.0560
